// provenance: patent US9624241B2

Listing of entries alongside the reported IC50.
# measurement.target: BRD4-BD1 (Homo sapiens (Human), UniProt O60885)
# assay.info: BRD4 AlphaScreen Assay (Example A1), BRD4-BD1
# Format: binding
# test.settings: Assay A1, 3.8 nM BRD4-BD1, 50 nM H4Ac4 peptide; read-out: BRD4 BD-1 enzyme IC50

Cn1nccc1-c1ccc2[nH]c(=O)n3c2c1OCC3c1ccccc1 (stereo not drawn)
100 to 1000 nM
Cc1noc(C)c1-c1ccc2[nH]c(=O)n3c2c1OCC3c1nccs1 (stereo not drawn)
< 100 nM
Cc1noc(C)c1-c1ccc2[nH]c(=O)n3c2c1OCC3C1CCCO1 (single isomer, unassigned) [Example 18A]
100 to 1000 nM

Per the reported BRD4-BD1 (Homo sapiens (Human), UniProt O60885) data, COc1ccccc1C1COc2c(-c3c(C)noc3C)ccc3[nH]c(=O)n1c23 (stereo not drawn) has IC50 of < 100 nM

Form field, IC50 with BRD4-BD1 (Homo sapiens (Human), UniProt O60885), item Cc1noc(C)c1-c1ccc2nc(N3CCCC3)n3c2c1OCC3c1ccccc1 (stereo not drawn) : < 100 nM

Entry Cn1nccc1-c1cc(Br)c2[nH]c(=O)n3c2c1OCC3c1ccccc1 (stereo not drawn) : IC50 on BRD4-BD1 (Homo sapiens (Human), UniProt O60885) = 100 to 1000 nM

Entry Cc1noc(C)c1-c1ccc2nc(NC(C)C)n3c2c1OCC3c1ccccc1 (stereo not drawn) ; assay system BRD4-BD1 (Homo sapiens (Human), UniProt O60885); IC50 recorded at < 100 nM

Tested on BRD4-BD1 (Homo sapiens (Human), UniProt O60885): Cc1noc(C)c1-c1ccc2nc(N3CC(O)C3)n3c2c1OCC3c1ccccc1 (stereo not drawn) . Observed IC50: < 100 nM

Value (IC50, BRD4-BD1 (Homo sapiens (Human), UniProt O60885)) for record Cc1cc(-c2ccnn2C)c2c3c1[nH]c(=O)n3C(c1ccccc1)CO2 (stereo not drawn) = 100 to 1000 nM

Observed IC50, BRD4-BD1 (Homo sapiens (Human), UniProt O60885), Cc1noc(C)c1-c1ccc2c3c1OCC(c1ccccc1)n3c(=O)n2C (stereo not drawn) : < 100 nM

The compound Cc1noc(C)c1-c1ccc2nc(C)n3c2c1OCC3c1ccccc1 (stereo not drawn) on BRD4-BD1 (Homo sapiens (Human), UniProt O60885): IC50 was < 100 nM

----------
We begin with a simple list: items and their reported pIC50.
# measurement.target: BRD4-BD1 (Homo sapiens (Human))
# assay.info: BRD4 AlphaScreen Assay (Example A2), BRD4-BD1
# Format: binding
# test.settings: Assay A2, AlphaScreen, BRD4-BD1; read-out: BRD4 BD-1 enzyme IC50
# Procedure: BRD4-BD1 and BRD4-BD2 assays were conducted in white 384-well polystyrene plate in a final volume of 40 μL for BD1 and 60 μL for BD2. Inhibitors were first serially diluted in DMSO and added to the plate wells before the addition of other reaction components. […] After plate sealing, the plate was incubated in the dark at room temperature for 75 min. before reading on a PHERAstar FS plate reader (BMG Labtech). […]
pIC50: −log10 of the molar value.

For orientation, consider the following solved cases.
Cc1noc(C)c1-c1ccc2nc(N3CC(O)C3)n3c2c1OCC3c1cccnc1 (single isomer, unassigned) [Example 160C]
5.00 to 6.00
Cc1noc(C)c1-c1cc(-c2ccccc2)c2[nH]c(=O)n3c2c1OCC3c1ccccc1 (stereo not shown)
> 7.00
Cc1noc(C)c1-c1ccc2nc(C3=CCN(C(=O)OC(C)(C)C)CC3)n3c2c1OC[C@@H]3c1ccccn1
> 7.00
CC(=O)N1CCC=C(c2nc3ccc(-c4c(C)noc4C)c4c3n2[C@@H](c2ccccn2)CO4)C1
> 7.00
Cc1noc(C)c1-c1cc(F)c2[nH]c(=O)n3c2c1OCC3c1ccccn1 (stereo not shown) [Example 265B]
> 7.00
Cc1noc(C)c1-c1ccc2c3c1CCC(c1ccccc1)n3c(=O)n2C (racemic)
6.00 to 7.00

Please find the next compound below.
Quick note, pIC50 for Cc1noc(C)c1-c1ccc2nc(C3CCN(S(C)(=O)=O)CC3)n3c2c1OC[C@@H]3c1ccccn1 landed at > 7.00

----------
# measurement.target: BRD4-BD2 (Homo sapiens (Human), UniProt O60885)
# assay.info: BRD4 AlphaScreen Assay (Example A2), BRD4-BD2
# Format: binding
# test.settings: Assay A2, AlphaScreen, BRD4-BD2; read-out: BRD4 BD-2 enzyme IC50
pIC50: −log10 of the molar value.
measurement.name: pIC50

Guide cases for pIC50, answers given:
Cc1noc(C)c1-c1ccc2nc(C3CCCN(C(=O)C4CC4)C3)n3c2c1OC[C@@H]3c1ccccn1 (mixture of isomers) [Example 118]
> 7.00
Cc1noc(C)c1-c1cc(-c2cncnc2)c2[nH]c(=O)n3c2c1OC[C@@H]3c1ccccn1 [Example 84, 2,2,2-trifluoroacetate]
> 7.00

Consider now this further molecule.
Form: item Cc1noc(C)c1-c1cc(Cl)c2[nH]c(=O)n3c2c1OCC3c1ccccn1 (single isomer, unassigned) [Example 266A] ; test system BRD4-BD2 (Homo sapiens (Human), UniProt O60885); pIC50: > 7.00

----------
# measurement.target: BRD4-BD1 (Homo sapiens (Human))
# assay.info: BRD4 AlphaScreen Assay (Example A2), BRD4-BD1
# Assay type: binding
# test.settings: Assay A2, AlphaScreen, BRD4-BD1; read-out: BRD4 BD-1 enzyme IC50
pIC50: −log10 of the molar value.
Some compounds, each annotated with its measured pIC50.

Please review the following examples before continuing.
Cc1noc(C)c1-c1ccc2nc(C3=CCCN(C(=O)OC(C)(C)C)C3)n3c2c1OC[C@@H]3c1ccccn1 [Example 99]
> 7.00
Cc1noc(C)c1-c1cc(-c2cccnc2)c2[nH]c(=O)n3c2c1OCC3c1ccccc1 (centres unmarked) [Example 52]
> 7.00
CC(=O)N1CCCN(c2nc3ccc(-c4c(C)noc4C)c4c3n2[C@@H](c2ccccn2)CO4)CC1 [Example 148]
> 7.00
CNC(=O)c1nc2ccc(-c3c(C)noc3C)c3c2n1[C@@H](c1ccccn1)CO3 [Example 95]
> 7.00
C=Cc1nc2ccc(-c3c(C)noc3C)c3c2n1[C@@H](c1ccccn1)CO3 [Example 88]
> 7.00

Entry Cc1noc(C)c1-c1cc(C#N)c2[nH]c(=O)n3c2c1OCC3c1ccccn1 (centres unmarked) [Example 269B] ; assay system BRD4-BD1 (Homo sapiens (Human)); pIC50 recorded at 5.00 to 6.00

Log: BRD4-BD1 (Homo sapiens (Human)), compound Cc1n[nH]c(C)c1-c1cc(-c2c(C)noc2C)c2c3c1[nH]c(=O)n3C(c1ccccn1)CO2 (centres unmarked) [Example 258] , pIC50 = 5.00 to 6.00

# lookup: Cc1noc(C)c1-c1ccc2[nH]c(=O)n3c2c1OCC3C1CCCCN1C(=O)NC(C)C (centres unmarked) [Example 80] on BRD4-BD1 (Homo sapiens (Human)), pIC50 = 5.00 to 6.00

----------
# Tested on: KMS.12.BM cells
# assay.info: KMS.12.BM Cell Viability Assay (Example B1)
# Format: cell-based, human
# test.settings: 3 days, Cell Titer-GLO, read-out: KMS cellular IC50
measurement.name: IC50

// IC50 lookup, molecule = Cc1noc(C)c1-c1ccc2nc(N3CC[C@@H](O)C3)n3c2c1OCC3c1cccnc1 (single isomer, unassigned) [Example 159C] , result: 1 to 10 µM

----------
# measurement.target: BRD4-BD2 (Homo sapiens (Human), UniProt O60885)
# assay.info: BRD4 AlphaScreen Assay (Example A2), BRD4-BD2
# Assay type: binding
# test.settings: Assay A2, AlphaScreen, BRD4-BD2; read-out: BRD4 BD-2 enzyme IC50
measurement.name: IC50

Cc1noc(C)c1-c1ccc2[nH]c(=O)n3c2c1CCC3c1ccccc1 (centres unmarked)
< 100 nM
Cc1noc(C)c1-c1ccc2[nH]c(=O)n3c2c1OCC3(CN)c1ccccn1 (centres unmarked) [Example 73, bis(2,2,2-trifluoroacetate)]
< 100 nM
Cc1noc(C)c1-c1cc(-c2ccc(O)nc2)c2[nH]c(=O)n3c2c1OC[C@@H]3c1ccccn1
< 100 nM
Cc1noc(C)c1-c1cc(Br)c2[nH]c(=O)n3c2c1OCC3c1ccccc1 (centres unmarked)
< 100 nM
Cc1noc(C)c1-c1ccc2nc(C3=CCN(C(=O)OC(C)(C)C)CC3)n3c2c1OC[C@@H]3c1ccccn1
< 100 nM

Briefly, IC50 measured for Cc1noc(C)c1-c1cc(-c2cccnc2O)c2[nH]c(=O)n3c2c1OC[C@@H]3c1ccccn1 : < 100 nM

For record COCC(=O)NCc1cc(-c2c(C)noc2C)c2c3c1[nH]c(=O)n3[C@@H](c1ccccn1)CO2 the listed IC50 is < 100 nM

Entry under test: Cc1noc(C)c1-c1cc(-c2ccnc(O)c2)c2[nH]c(=O)n3c2c1OC[C@@H]3c1ccccn1 . Its IC50 was < 100 nM
